protein stability index values, listed per item
System: Saccharomyces cerevisiae
Assay: protein stability index of tFT-peptide fusion (C-terminal peptide) (PSI (0-1 scale)); higher = more stable (slower turnover);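 further: PSI is a weighted mean of sequencing reads over stability bins, variants kept only with over 10 reads, mCherry proximal and sfGFP distal, peptide attached via GGGS linker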
Conditions: genetic background: wild type; temperature: 30 C

Biosequence	Subject Of Test	protein stability index
SHSLPHLSGPPR	Saccharomyces cerevisiae	0.698
FPFGRMNVSGGC	Saccharomyces cerevisiae	0.701
RAPFLSRACCSR	Saccharomyces cerevisiae	0.648
IGSEKGKIGVGC	Saccharomyces cerevisiae	0.677
LLGHLFTMLVIY	Saccharomyces cerevisiae	0.308
HSSRSPPPSPYA	Saccharomyces cerevisiae	0.709
LGFVRLLFPSFS	Saccharomyces cerevisiae	0.758
CLLCLPPPRSLS	Saccharomyces cerevisiae	0.69
RQINEKKKLYMI	Saccharomyces cerevisiae	0.215
KIKNNIKKKKNR	Saccharomyces cerevisiae	0.697
PRPPPSPTPPLT	Saccharomyces cerevisiae	0.69
VRPRSSSQRPTP	Saccharomyces cerevisiae	0.689
VELRNCYLLVKA	Saccharomyces cerevisiae	0.327
FCGLCCDPNRVP	Saccharomyces cerevisiae	0.708
VSVIRIVPPEFI	Saccharomyces cerevisiae	0.672
LSLPRCPKGVAH	Saccharomyces cerevisiae	0.672
SPLFLVIRLPST	Saccharomyces cerevisiae	0.62
QKGLFYCVILYC	Saccharomyces cerevisiae	0.316
SEKRIGAGKDSE	Saccharomyces cerevisiae	0.688
PPPSSPPTHLTS	Saccharomyces cerevisiae	0.678
GNTPERVQRRWE	Saccharomyces cerevisiae	0.632
TEHRVGEKEPWH	Saccharomyces cerevisiae	0.681
YFNGLLPLVLVF	Saccharomyces cerevisiae	0.0927
VSCGRVGVARLG	Saccharomyces cerevisiae	0.641
KQFKFPLRVIRA	Saccharomyces cerevisiae	0.519
PRPSRILPLPAP	Saccharomyces cerevisiae	0.65
GGGGLGRGKGCW	Saccharomyces cerevisiae	0.706
RGVGGRALGVGR	Saccharomyces cerevisiae	0.678
VFSAIPDWLILA	Saccharomyces cerevisiae	0.453
PLPRLPLLPPLR	Saccharomyces cerevisiae	0.67
GMSSWNSISFPI	Saccharomyces cerevisiae	0.751
LAGNNVSFMRVR	Saccharomyces cerevisiae	0.714
ALFFCLFGRVMW	Saccharomyces cerevisiae	0.488
LFHSFFLYCLMS	Saccharomyces cerevisiae	0.482
RFPRFVVPTRTR	Saccharomyces cerevisiae	0.852
THVDLGVLVSPE	Saccharomyces cerevisiae	0.67
FFVFLVLFCLWV	Saccharomyces cerevisiae	0.391
GRFRQTVTGEGW	Saccharomyces cerevisiae	0.669
AFFCTLCLFLVS	Saccharomyces cerevisiae	0.402
WGTGGRLGVGHV	Saccharomyces cerevisiae	0.697
FPSPPPPAPLPP	Saccharomyces cerevisiae	0.763
GMRGGKGKPAET	Saccharomyces cerevisiae	0.728
LSRGLVVSFVLK	Saccharomyces cerevisiae	0.662
GGGWGGEAVRVW	Saccharomyces cerevisiae	0.65
PPPPSLLPLSLP	Saccharomyces cerevisiae	0.608
LPPSPPPPPRQS	Saccharomyces cerevisiae	0.739
QFRRKGMITECK	Saccharomyces cerevisiae	0.716
THSLSCPPRNPP	Saccharomyces cerevisiae	0.647
FGCLGVLGSGRC	Saccharomyces cerevisiae	0.728
DDQYVGRYYNKT	Saccharomyces cerevisiae	0.676
GGGERLDDIVGG	Saccharomyces cerevisiae	0.801
KFHPRPPSRVLR	Saccharomyces cerevisiae	0.654
ATSCLPLPSCPG	Saccharomyces cerevisiae	0.726
GRGRVAAGFVAR	Saccharomyces cerevisiae	0.737
PSTPSPSCAPPS	Saccharomyces cerevisiae	0.709
RDGGSTDGGKRR	Saccharomyces cerevisiae	0.697
PPPPPPPLPHPP	Saccharomyces cerevisiae	0.595
VLVPVDRCGYIG	Saccharomyces cerevisiae	0.619
HEGHVWGIRGTG	Saccharomyces cerevisiae	0.683
EMISRNVFTYLS	Saccharomyces cerevisiae	0.473
CSAALTTLLDFA	Saccharomyces cerevisiae	0.715
PSPYFHLFGTQS	Saccharomyces cerevisiae	0.77
RGGNVDSRKMNR	Saccharomyces cerevisiae	0.722
PPSLPPLPPSPA	Saccharomyces cerevisiae	0.656
PPRTPFSLPPPA	Saccharomyces cerevisiae	0.73
SPPILPRGLYSH	Saccharomyces cerevisiae	0.637
NGQVAGVGNVAW	Saccharomyces cerevisiae	0.678
GGRGRRAGGSSG	Saccharomyces cerevisiae	0.745
PSPPPLLAPSPL	Saccharomyces cerevisiae	0.683
RFSDGSHLFGDR	Saccharomyces cerevisiae	0.524
FLSRLVGFYFVV	Saccharomyces cerevisiae	0.361
KKKRDKKGKKKQ	Saccharomyces cerevisiae	0.697
RPCLSALRFRFF	Saccharomyces cerevisiae	0.206
HCLLPLTTRRGR	Saccharomyces cerevisiae	0.7
GKPFAWVAVVGD	Saccharomyces cerevisiae	0.729
TVVIFLCSYITT	Saccharomyces cerevisiae	0.186
TGSRISHSPLYP	Saccharomyces cerevisiae	0.671
GVVGGGVQGGMG	Saccharomyces cerevisiae	0.624
DLEDPAETPNIF	Saccharomyces cerevisiae	0.72
LRFRPLSGRAFF	Saccharomyces cerevisiae	0.664
DQGMSDVYPDCW	Saccharomyces cerevisiae	0.662
VGKFGGAGGICQ	Saccharomyces cerevisiae	0.685

###

Tested on: Saccharomyces cerevisiae
Test: protein stability index of tFT-peptide fusion (C-terminal peptide) (PSI (0-1 scale)); higher = more stable (slower turnover)
Details: genetic background: wild type; temperature: 37 C
protein stability index class ranges: small value: < 0.3; mid value: ≥ 0.3 and < 0.5; large value: ≥ 0.5

Biosequence	Qualitative Label
FFVFMAKLRTCN	small value
LVVWASLVRVEG	mid value
APPRSLSPPLLS	large value
MGDFGFIFVFFL	large value
CFSIPLVILNVL	mid value
DWTVSYLWVTAL	mid value
RGVPPPPWTPPP	large value
RDGAHFLLILVC	small value
SILFSYFCFFLL	mid value
FRFGAKISLIVL	mid value
TVVIFLCSYITT	small value
GVWLRAVRGFGV	large value
RPHPLHIPRRLA	mid value
LFVPVFSFGFVC	small value
GVLHSKGPWFSG	large value
FIGVLVFSWLLF	mid value
GLWLCRGLVRAW	mid value
FVSSLLPLLTLL	small value
GFFFWTMCFWVV	mid value
VVLAFFFWFFVG	mid value
VRIGCSLLFFLP	large value
LVLGVEVCFVLG	small value
FSIFFFLLPSSL	large value
RLPFPVVLFLLF	mid value
FVSGRFLFFFVL	small value
LSFLFFRLCSFF	small value
VCLCVIICSMSV	small value
RFLVVVRFYWRC	mid value
SSVFLGWLIVCY	small value
NVVIGLHLLVYI	mid value
LWVSHFVILIVS	small value
LFFWFMYLRRLI	small value
GLPRASPLPIPV	large value
WGRFFWGCGVWV	large value
LWVMVLFFPGCS	large value
LFFGFFLIYFLG	mid value
PCVLAIYVWIRS	small value
YRKKIKNIWLRW	large value

###

System: Saccharomyces cerevisiae
Test: protein stability index of tFT-peptide fusion (C-terminal peptide) (PSI (0-1 scale)); higher = more stable (slower turnover)
Conditions: genetic background: wild type; temperature: 30 C
protein stability index values, listed per item
Assay Endpoint: protein stability index

Biosequence	Numeric Result
RPPCLRPPPPPL	0.727
NMMTSVLEGGVG	0.699
LAPPHLPPPLHK	0.678
LTPFFSRPSVLL	0.72
RKRKKISEIIAI	0.52
GLGLHKDGSTGG	0.609
PPLLPPPPPPAP	0.666
NTTFISRRLPPR	0.687
GMIRDKEVVGGG	0.651
KKKKKQRMKRNG	0.674
GLCVLVASCGRG	0.664
AAPHDVARPTTR	0.689
LEAINRKGIWQE	0.639
HPFSLGSLVASW	0.641
VWSWVDSFCRGG	0.744
LVYLASGMYRFV	0.607
VKSMVCQGHLGI	0.722
KREEGKTKKKKQ	0.666
LDLYRYLQDLGC	0.731
LGAGLIGCALVE	0.645
PSPPPSPPPRHF	0.692
PAVSRPPLPSVH	0.7
SQKNTQLEADGK	0.661
MCCSVGGLFFFF	0.649
VRSELHINSFIH	0.53
GSFLGTSFKSEY	0.666
SPPLPSAPPPPR	0.664
QRSQASIPGQEV	0.579
LCWLVHFFLWVS	0.288
ISPLPPVPAGLS	0.691
TAPRERFGKDPR	0.649
LGEAGGWSLGFG	0.73
PPPPLPPPSPPL	0.732
TRRVKWSWLLKP	0.7
YCGGWCGGWEIG	0.709
GHRTIPHSNCLS	0.65
LLPLLFFFLCLP	0.499
WHWDGVGTLVIW	0.605
GGFLATAGLSVT	0.673
RTRKARTHGRAQ	0.679
CSKERAPGPSSG	0.705

###

Test system: Saccharomyces cerevisiae
Experiment: protein stability index of tFT-peptide fusion (C-terminal peptide) (PSI (0-1 scale)); higher = more stable (slower turnover)
Details: genetic background: wild type; temperature: 30 C
Please enter TRUE where protein stability index is greater than or equal to 0.7, and FALSE where it is lower.

Biosequence	Qualitative Label
GREREKGGKRIE	FALSE
HTGTCSVLPHTL	FALSE
IVNLAQAEFVVT	FALSE
LSPCPPLRPLLS	FALSE
RCLSISTSLCKV	TRUE
FFGYLVDEGLWV	TRUE
RSRSIPTTLCLP	FALSE
LVWSGLIVVVGG	FALSE
SCNLYVGQVKSG	FALSE
CLSGLIIMPSVG	FALSE
DSYELGICCSSS	FALSE
VIRQPSSKLWIQ	FALSE
PPPWSFPCPSAS	TRUE
ASAWLGLCGWVL	FALSE
GCVGIGFSPGGG	FALSE
LSRGGVSCWWGH	TRUE
DSGVGLARSARG	FALSE
GETGRGRRPRSQ	FALSE
PPRSFPGTPLIA	FALSE
SPPLPAPPPPIP	FALSE
GREGAADGWACG	FALSE
PSKGKYKKMGPR	FALSE
EKLKTKEEKKTR	TRUE
LFPAGSSLCGAI	TRUE
IYPRLGPHSLVC	FALSE
FRPLVDVKFPRY	FALSE
IGEGLLFWFGIR	FALSE
PHSPLSPAPQSP	TRUE
IRVLDVWRSGHL	TRUE
